From: paper PMC8699473

Assay: Short-term stability in spiked pooled human plasma (bench-top, 4 °C, 56 °C)
Settings: validation standard 2xLLOV
Endpoint label: Short-time stability (24h, RT, without daylight) Accuracy [%]
Value and unit, in that order.

The cases that follow already have their Short-time stability (24h, RT, without daylight) Accuracy [%] on record.
stdin: I am curious: what Short-time stability (24h, RT, without daylight) Accuracy [%] value has been reported for CCCS(=O)(=O)Nc1ccc(F)c(C(=O)c2c[nH]c3ncc(-c4ccc(Cl)cc4)cc23)c1F ?
stdout: 85.9%

stdin: Item under review: Cc1ccc(NC(=O)c2ccc(CN3CCN(C)CC3)cc2)cc1Nc1nccc(-c2cccnc2)n1 . Reported Short-time stability (24h, RT, without daylight) Accuracy [%]?
stdout: 82.7%

stdin: Would you kindly share the measured Short-time stability (24h, RT, without daylight) Accuracy [%] for Cc1ccc(Nc2nccc(N(C)c3ccc4c(C)n(C)nc4c3)n2)cc1S(N)(=O)=O ?
stdout: 104.3%

Please state, for each entry, its recorded Short-time stability (24h, RT, without daylight) Accuracy [%].
1. C[C@]12CC[C@H](O)CC1=CC[C@@H]1[C@@H]2CC[C@]2(C)C(c3cccnc3)=CC[C@@H]12
2. O=C(Nc1cnn2ccc(N3CCC[C@@H]3c3cc(F)ccc3F)nc12)N1CC[C@H](O)C1

stdout:
["101.5%", "102.4%"]
